Below is a list of entries, each paired with its recorded MIC value.
Test system: Streptococcus pneumoniae
assay: Antibacterial activity against Streptococcus pneumoniae ATCC 49619 by broth microdilution method
Format: functional

CO[C@]1(C)C[C@@H](C)CN[C@H](C)[C@@H]2N(CCCCn3cc(-c4cccc(N)c4)nn3)C(=O)O[C@]2(C)[C@@H](CCF)OC(=O)[C@H](C)C(=O)[C@H](C)[C@H]1O[C@@H]1O[C@H](C)C[C@H](N(C)C)[C@H]1O ... ≤ 0.03 µg/mL
CC[C@H]1OC(=O)[C@@](C)(F)C(=O)[C@H](C)[C@@H](O[C@@H]2O[C@H](C)C[C@H](N(C)C)[C@H]2O)[C@](C)(OC)C[C@@H](C)C(=O)[C@H](C)[C@@H]2N(CC#CCn3cc(-c4cccc(N)n4)nn3)C(=O)O[C@@]21C ... ≤ 0.03 µg/mL
CC[C@H]1OC(=O)[C@H](C)[C@@H](O[C@H]2C[C@@](C)(OC)[C@@H](O)[C@H](C)O2)[C@H](C)[C@@H](O[C@@H]2O[C@H](C)C[C@H](N(C)C)[C@H]2O)[C@](C)(O)C[C@@H](C)C(=O)[C@H](C)[C@@H](O)[C@]1(C)O ... 0.03 µg/mL

Now look at this one.
Notebook: CC[C@H]1OC(=O)[C@H](C)C(=O)[C@H](C)[C@@H](O[C@@H]2O[C@H](C)C[C@H](N(C)C)[C@H]2O)[C@](C)(OC)C[C@@H](C)CN[C@H](C)[C@@H]2N(CCCCn3cc(-c4cccc(N)c4)nn3)C(=O)O[C@@]21C , MIC read as ≤ 0.03 µg/mL
